- System: NCI-H838
- protocol_notes: Cell proliferation CellTiterGlo Ex.2
- Type: cell-based
- condition: Homo sapiens; NCI-H838 (Lung), 72 h
pIC50: −log10 of the molar value.
readout_name: pIC50

// molecule C#C[C@]1(CO)O[C@@H](n2cnc3c(=O)[nH]c(N)nc32)C[C@@H]1O , assay NCI-H838, pIC50 value: < 5.00

* * *

- System: SKOV3
- protocol_notes: Cell proliferation Ex.3
- Assay type: cell-based
- condition: Homo sapiens, SK-OV-3; SKOV3, 72 h
- Description: A dose response relationship on cell proliferation was assessed for Compound 13 on 140 tumor cell lines. […] Cells were cultured in the appropriate media. […] […] on the medium, cell plates were equilibrated to room temperature for one hour, CellTiterGlo reagent (Promega) was added and luminescence was measured approximately an hour later using a luminometer. […]
readout_name: IC50

In plain terms, C#C[C@]1(CO)O[C@@H](n2cc(F)c(N)nc2=O)C[C@@H]1O [compound 9] has a documented IC50 of > 10 µM
